From: patent US20150104392A1

Tested on: HL-60
Assay: XTT antiproliferative assay
Type: cell-based
Settings: Homo sapiens, 120 h; HL-60, Acute myeloid leukemia; 5 days incubation

Structure smiles: Cc1[nH]c2ccc(F)cc2c1-c1nc2c3cccnc3c3ncccc3c2[nH]1
IC50 / nM: 46

---

Tested on: Kasumi-1
Test: XTT antiproliferative assay
Type: cell-based
Details: Homo sapiens, 120 h; Kasumi-1, Acute myeloid leukemia; 5 days incubation
Measured property: IC50

Structure smiles: Cc1[nH]c2ccc(F)cc2c1-c1nc2c3cccnc3c3ncccc3c2[nH]1
Measured: 6.9 nM

---

Tested on: MOLT-4
Experiment: XTT antiproliferative assay
Assay type: cell-based
Settings: Homo sapiens, 120 h; MOLT-4, Acute lymphoblastic leukemia; 5 days incubation

Structure smiles: Cc1[nH]c2ccc(F)cc2c1-c1nc2c3cccnc3c3ncccc3c2[nH]1
Value unit: nM
IC50: 70
